Molecular target: T1, human PACAP38 (human, not fully specified; C-terminal lysine is amidated; N-terminal or C-terminal biotin in the HTRF and PC-12 cell binding assays)
T1 construct: synthetic peptide, bought; also called huPACAP (1-38)
T1 peptide: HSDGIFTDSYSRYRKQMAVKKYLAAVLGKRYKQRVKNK
Experiment: SPR, Ab immobilised
value.type: koff (s⁻¹)

>>> readout_number("anti-PACAP antibody Ab3 (antibody, human IgG1, kappa, N297A, V domains shown, full-length rabbit/human chimeric antibody) VH: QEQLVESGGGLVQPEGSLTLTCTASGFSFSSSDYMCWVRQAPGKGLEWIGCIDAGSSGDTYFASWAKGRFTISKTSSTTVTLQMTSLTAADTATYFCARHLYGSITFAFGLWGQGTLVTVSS VL: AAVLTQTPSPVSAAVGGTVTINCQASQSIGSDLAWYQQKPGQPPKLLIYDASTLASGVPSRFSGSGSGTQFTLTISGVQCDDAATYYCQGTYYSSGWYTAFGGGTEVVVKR")
"4.2e-05"
>>> readout_number("anti-PACAP antibody Ab5.H (antibody, human IgG1, kappa, N297A, V domains shown, humanized form of Ab5, full length) VH: EVQLVESGGGLVQPGGSLRLSCAASGFSLSSYAMIWVRQAPGKGLEWVGIIYDNGDTYYASSAKGRFTISRDNSKNTVYLQMNSLRAEDTAVYFCAREPGSTTQNDLWGQGTLVTVSS VL: DVQMTQSPSTLSASVGDRVTITCQASENIYNSLLWYQQKPGKAPKLLIYRASTLASGVPSRFSGSGSGTEFTLTISSLQPDDFATYYCQNYYNIWTNGAAFGGGTKVEIKR")
"1.7e-05"
